tested on: Plutella xylostella; test: Insecticidal activity against third-instar larvae of Plutella xylostella (diamondback moth) fed on compound treated cabbage leaves assessed as mortality at 25 mg/l after 3 days relative to control; type: functional; details: 72 h
Recorded mortality at 25 µg/mL, one value per entry.

Worked examples follow.
>>> print(df.to_string())
                                        mol         assay_system  reading
0  COc1ccc(-c2c(C)c(OCCCOc3c(Cl)cc(OCC=C(Cl)Cl)cc3Cl)nn2C)cc1  Plutella xylostella      40%
1  Cc1ccc(-c2c(C)c(OCCCCOc3c(Cl)cc(OCC=C(Cl)Cl)cc3Cl)nn2C)cc1  Plutella xylostella      50%
2  Cc1c(OCCCOc2c(Cl)cc(OCC=C(Cl)Cl)cc2Cl)nn(C)c1-c1ccc(Cl)cc1Cl  Plutella xylostella      80%
3  Cc1c(OCCCOc2c(Cl)cc(OCC=C(Cl)Cl)cc2Cl)nn(C)c1-c1ccccc1  Plutella xylostella      30%

Now take the following molecule into account.
Qu. If you can, please state the reported mortality at 25 µg/mL value of "Cc1ccc(-c2cc(OCCCOc3c(Cl)cc(OCC=C(Cl)Cl)cc3Cl)nn2C)c(C)c1" .
Ans. 50%

====

tested on: Plutella xylostella; assay: Insecticidal activity against third-instar larvae of Plutella xylostella (diamondback moth) fed on compound treated cabbage leaves assessed as mortality at 25 mg/l after 3 days relative to control; type: functional; details: 72 h
measurement_kind: mortality at 25 µg/mL (%)
Response body: numeric value in %, unit text excluded.

Worked examples follow.
In [3]: df
Out[3]:
                                        mol         assay_system       measurement_kind  units_symbol  reading
0  Cc1c(OCCCOc2c(Cl)cc(OCC=C(Cl)Cl)cc2Cl)nn(C)c1-c1ccc(C(C)(C)C)cc1  Plutella xylostella  mortality at 25 µg/mL             %       87
1  Cc1c(OCCCOc2c(Cl)cc(OCC=C(Cl)Cl)cc2Cl)nn(C)c1-c1ccc(F)cc1  Plutella xylostella  mortality at 25 µg/mL             %       80

Qu. Given "Cn1nc(OCCCOc2c(Cl)cc(OCC=C(Cl)Cl)cc2Cl)cc1-c1ccc(Cl)cc1" , state its recorded mortality at 25 µg/mL.
Ans. 100

Qu. Quick one: mortality at 25 µg/mL for "Cc1ccc(-c2c(C)c(OCCOc3c(Cl)cc(OCC=C(Cl)Cl)cc3Cl)nn2C)cc1" ?
Ans. 0

====

system: Plutella xylostella; experiment: Insecticidal activity against third-instar larvae of Plutella xylostella (diamondback moth) fed on compound treated cabbage leaves assessed as mortality at 25 mg/l after 3 days relative to control; type: functional; details: 72 h
# if value of mortality at 25 µg/mL reaches 60%, tag Satisfied; if it stays below, tag Not satisfied

In [3]: df
Out[3]:
                                        mol          label
0  Cc1ccc(-c2c(C)c(OCCCOc3c(Cl)cc(OCC=C(Cl)Cl)cc3Cl)nn2C)cc1      Satisfied
1  CCc1ccc(-c2c(C)c(OCCCOc3c(Cl)cc(OCC=C(Cl)Cl)cc3Cl)nn2C)cc1      Satisfied
2  Cc1c(OCCCOc2c(Cl)cc(OCC=C(Cl)Cl)cc2Cl)nn(C)c1-c1ccc(Cl)cc1  Not satisfied
3  CCc1ccc(-c2cc(OCCCOc3c(Cl)cc(OCC=C(Cl)Cl)cc3Cl)nn2C)cc1  Not satisfied
4  CCc1ccc(-c2c(C)c(OCCCCOc3c(Cl)cc(OCC=C(Cl)Cl)cc3Cl)nn2C)cc1  Not satisfied

Qu. Is reported mortality at 25 µg/mL greater than or equal to 60% here: "Cc1ccc(-c2c(C)c(OCCCOc3c(Cl)cc(OCC=C(Cl)Cl)cc3Cl)nn2C)cc1C"
Ans. Satisfied

Qu. Confirm if mortality at 25 µg/mL reported for the compound "Cn1nc(OCCCOc2c(Cl)cc(OCC=C(Cl)Cl)cc2Cl)cc1-c1ccccc1" is 60% or above.
Ans. Satisfied

Qu. # check: mortality at 25 µg/mL of "FC(F)(F)c1ccc(OCCCOc2c(Cl)cc(OCC=C(Cl)Cl)cc2Cl)nc1" is greater than or equal to 60%
Ans. Satisfied

====

test system: Plutella xylostella; assay: Insecticidal activity against third-instar larvae of Plutella xylostella (diamondback moth) fed on compound treated cabbage leaves assessed as mortality at 25 mg/l after 3 days relative to control; type: functional; details: 72 h
# label = 1.0 if mortality at 25 µg/mL >= 70% else 0.0

Reference set, count: 3
                                        mol  label
0  Cc1c(OCCCOc2c(Cl)cc(OCC=C(Cl)Cl)cc2Cl)nn(C)c1-c1ccc(C(C)C)cc1    1.0
1  Cn1nc(OCCCOc2c(Cl)cc(OCC=C(Cl)Cl)cc2Cl)cc1-c1ccc(Cl)cc1Cl    1.0
2  Cc1c(OCCCOc2c(Cl)cc(OCC=C(Cl)Cl)cc2Cl)nn(C)c1-c1ccc(Cl)c(Cl)c1    1.0

Qu. Is the recorded value of mortality at 25 µg/mL equal to or greater than 70% for this compound? "Cc1ccc(C)c(-c2c(C)c(OCCCOc3c(Cl)cc(OCC=C(Cl)Cl)cc3Cl)nn2C)c1"
Ans. 0.0

Qu. mortality at 25 µg/mL >= 70% for "Cc1ccc(-c2cc(OCCCOc3c(Cl)cc(OCC=C(Cl)Cl)cc3Cl)nn2C)cc1C" ?
Ans. 0.0

Qu. Check the entry "CCc1ccc(-c2c(C)c(OCCOc3c(Cl)cc(OCC=C(Cl)Cl)cc3Cl)nn2C)cc1" : does mortality at 25 µg/mL equal or exceed 70%?
Ans. 0.0

Qu. Check if mortality at 25 µg/mL >= 70% (inclusive). Item: "CCOc1ccc(-c2c(C)c(OCCCOc3c(Cl)cc(OCC=C(Cl)Cl)cc3Cl)nn2C)cc1"
Ans. 0.0

Qu. Check this compound for mortality at 25 µg/mL at or above 70%: "Cc1ccc(-c2c(C)c(OCCCOc3c(Cl)cc(OCC=C(Cl)Cl)cc3Cl)nn2C)c(C)c1"
Ans. 0.0
